PROTOCOL_DESCRIPTION: Toxicity in mouse administered as single injection via caudal vein
CONDITION_DETAILS: in vivo, route iv
Consider the cut-off 100 mg/kg. If the recorded LD50 is strictly smaller, the label is t; if not, the label is f.

Consider the worked cases shown below.
>>> assigned_class("CC1CN(CCOC(=O)c2ccc(N)cc2)CC(C)O1 (stereo not drawn)")
"f"
>>> assigned_class("CC1CC(C)CN(CCOC(=O)c2ccc(N)cc2)C1 (stereo not drawn)")
"t"
>>> assigned_class("CCN(CC)CCOC(=O)c1ccc(N)cc1")
"t"
>>> assigned_class("CC1COCCN1CCOC(=O)c1ccc(N)cc1 (stereo not drawn)")
"f"

Exercise: Record `CC(C)N1CCN(CCOC(=O)c2ccc(N)cc2)CC1` : is its LD50 strictly below 100 mg/kg?
Key: t

Exercise: Just wondering, is LD50 of `Nc1ccc(C(=O)OCCN(CCO)CCO)cc1` below 100 mg/kg?
Key: f

Exercise: Please state whether LD50 is below 100 mg/kg for `Nc1ccc(C(=O)OCCN2CCOCC2)cc1`
Key: f

* * *

PROTOCOL_DESCRIPTION: Lipophilicity, log D of the compound
Type: physicochemical
CONDITION_DETAILS: octanol/water
Rule: criterion met for logD not less than 1, criterion not met for anything less.

Example entries begin here.
>>> assigned_class("Nc1ccc(C(=O)OCCN2CCS(=O)(=O)CC2)cc1")
"criterion met"
>>> assigned_class("CCN(CCOC)CCOC(=O)c1ccc(N)cc1")
"criterion not met"
>>> assigned_class("CC1COCCN1CCOC(=O)c1ccc(N)cc1 (stereo not drawn)")
"criterion not met"
>>> assigned_class("CC1COCC(C)N1CCOC(=O)c1ccc(N)cc1 (stereo not drawn)")
"criterion not met"
>>> assigned_class("Nc1ccc(C(=O)OCCN2CCSCC2)cc1")
"criterion met"

Exercise: Test whether the compound `CCN(CCO)CCOC(=O)c1ccc(N)cc1` records logD of 1 or higher.
Key: criterion not met

Exercise: Does logD meet or surpass 1 for CC1CN(CCOC(=O)c2ccc(N)cc2)CC(C)O1 (stereo not drawn) ?
Key: criterion met

Exercise: Determine whether measured logD meets or exceeds 1 for `Nc1ccc(C(=O)OCCN(CCO)CCO)cc1`
Key: criterion not met

* * *

Tested on: Mus musculus
PROTOCOL_DESCRIPTION: Anesthetic activity in mouse assessed as loss of righting […] administered as single injection via caudal vein
Type: functional
CONDITION_DETAILS: route iv
# ED50 listing for each entry below
Kindly provide the numeric value in mg/kg only, without the unit symbol.

>>> recorded_number("CC1COCCN1CCOC(=O)c1ccc(N)cc1 (stereo not drawn)")
119

Exercise: Kindly state the measured ED50 obtained for CC1CN(CCOC(=O)c2ccc(N)cc2)CC(C)O1 (stereo not drawn) with Mus musculus.
Key: 59.3

Exercise: Field: ED50 (Mus musculus). Entry: `CC(C)(C)N1CCN(CCOC(=O)c2ccc(N)cc2)CC1`
Key: 42.2

Exercise: # value lookup — system Mus musculus, readout ED50, item `Nc1ccc(C(=O)OCCN2CCSCC2)cc1`
Key: 54

Exercise: Notebook entry, Mus musculus assay: ED50 of `CCN1CCN(CCOC(=O)c2ccc(N)cc2)CC1` = ?
Key: 56

Exercise: Recorded ED50 for `CCN(CCOC)CCOC(=O)c1ccc(N)cc1` with Mus musculus, please?
Key: 39.6

All values here come from ChEMBL document CHEMBL5131469.
